Assayed Target: T1, human beta klotho protein (soluble, used in Biacore) (human, UniProt Q86Z14 53-997, limits assumed)
T1 construct: also called HuKLB; huKLB
T1 sequence: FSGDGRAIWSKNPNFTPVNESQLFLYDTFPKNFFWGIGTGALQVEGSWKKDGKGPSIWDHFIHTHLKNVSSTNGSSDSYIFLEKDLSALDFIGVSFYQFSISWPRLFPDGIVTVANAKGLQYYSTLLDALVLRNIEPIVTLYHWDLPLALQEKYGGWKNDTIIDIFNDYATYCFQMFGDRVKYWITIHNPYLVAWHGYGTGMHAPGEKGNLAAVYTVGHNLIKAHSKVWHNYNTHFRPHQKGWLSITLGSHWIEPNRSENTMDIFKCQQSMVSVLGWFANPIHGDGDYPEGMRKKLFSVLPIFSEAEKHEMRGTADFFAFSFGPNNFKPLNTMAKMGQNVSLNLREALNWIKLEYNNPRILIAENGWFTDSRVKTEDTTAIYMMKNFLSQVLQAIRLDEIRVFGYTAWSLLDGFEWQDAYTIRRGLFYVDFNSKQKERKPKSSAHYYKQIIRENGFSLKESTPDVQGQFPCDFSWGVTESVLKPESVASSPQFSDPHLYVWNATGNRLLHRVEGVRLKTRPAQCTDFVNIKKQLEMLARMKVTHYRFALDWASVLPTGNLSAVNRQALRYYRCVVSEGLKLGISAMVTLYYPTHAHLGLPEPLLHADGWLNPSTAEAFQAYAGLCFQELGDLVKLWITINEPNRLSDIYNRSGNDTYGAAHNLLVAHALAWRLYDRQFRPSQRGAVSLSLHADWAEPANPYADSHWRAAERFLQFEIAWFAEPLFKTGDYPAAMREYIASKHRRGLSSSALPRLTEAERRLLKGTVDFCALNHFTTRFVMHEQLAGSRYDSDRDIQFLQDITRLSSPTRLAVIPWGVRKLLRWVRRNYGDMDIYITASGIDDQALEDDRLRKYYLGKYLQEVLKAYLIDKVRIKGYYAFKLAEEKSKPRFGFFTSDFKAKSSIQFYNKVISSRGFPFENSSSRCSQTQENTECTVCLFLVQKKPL
Experiment Notes: Biacore SPR, antibody captured on anti-mouse Fc, KLB as analyte (1.56-25 nM), 25 C
Method: Binding affinity measurements were also made in additional Biacore based assays. For example, equilibrium dissociation constant (KD) measurements were carried out with purified antibodies to evaluate their binding to human beta klotho and cyno beta klotho. […] This was followed by injection of different concentrations of human or cyno beta klotho (1.56 nM to 25 nM, two-fold dilutions in PBS-P buffer) at a flow rate of 70 μL/min and the binding kinetics were evaluated at 25° C.
Each entry below carries its recorded Kd.
Measured Metric: Kd (nM)

Binder: antibody 3N20 (antibody, V domains shown, Murine monoclonal antibody) VH: QVQLQESGAELARPGASVKLSCKVSGYIFTNYGISWVKQRTGQGLEWIGEIYPRSGNTYYNEKFKGKATLTADMSSSTAYMDLRSLTSEDSAVYFCARHWDGVLDYFDYWGQGTSLTVSS VL: DIVMTQSPSSLSVSAGEKVTMSCKSSQSLLNSGNQKNYLAWYQQKPGQPPKLLIYGASTRESGVPDRFTGSGSGTDFTLTISSVQAEDLAVYYCLNDHSYPFTFGAGTKLELK
Result Unit: nM
Meas Value: 3.3
//
Binder: antibody 5C23 (antibody, V domains shown, Murine monoclonal antibody) VH: QVQPQESGPELVKPGALVKISCKASGYTFTRYDINWVKKRPGQGLEWIGWIYPGDGSTKYNEKFEGKATLTADKSSSTAYMQLSSLTSENSAVYFCARSDYYGSRSFVYWGQGTLVTVSA VL: DIVLTQSPDSLTVSLGQRATISCRASKSVSTSGYSYMHWYQQKPGQPPKLLIYLASNLESGVPARFSGSGSGTDFTLNIHPVEEEDAATYYCQHSRELPYTFGGGTKLEIK
Result Unit: nM
Meas Value: 1.2
//
Binder: antibody 5F7 (antibody, V domains shown, Murine monoclonal antibody) VH: QVQPQESGPELVKPGALVKISCKASGYTFTRYDINWVKQRPGQGLEWIGWIYPGDISTKYNEKFKGKATLTADKSSSTAYMQLNSLTSENSAVYFCARSDYYGSRSFVYWGQGTLVTVSA VL: DIVLTQSPASLAVSLGQRATISCRASKSVSTSGYSYMHWYQQKPGQPPKLLIYLASNLESGVPARFSGSGSGTDFTLNIHPVEEEDAATYYCQHSRELPYTFGGGTKVEIK
Result Unit: nM
Meas Value: 1.7
//
Binder: antibody 1C17 (antibody, V domains shown, Murine monoclonal antibody) VH: QVQLQESGPGLVKPSQSLSLTCSVTGYSITSGYYWNWIRQFPGNKLEWMGYINYDGNSNYTPSLKNRISITRDTSKNQFFLKLNSVTPEDTATYYCARKGAYYSNYDSFDVWGTGTTVTVSS VL: DIKMTQSPSSMYASLGERVTITCKASQDINSYLSWVQQKPGKSPKTLIYRANRLVDGVPSRFSGSGSGQDYSLTISSLEYEDMGIYYCLQYDEFPFTFGSGTKLEIK
Result Unit: nM
Meas Value: 0.89

// data source = patent US20210030857A1
